Exercise: for every item that follows, state its recorded inhibition.
Assay: growth inhibitors of tim10-1 mutant yeast, primary screen, luminescence, uHTS (AID 463190);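 further: mutant grown at 25 °C; 0% = DMSO wells with yeast and 100% = wells holding no yeast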
Conditions: S. cerevisiae tim10-1 ts strain growth, BacTiter-Glo, 24 h; at 20 µM; active compounds read high
The whole screen tested about 330,000 compounds, of which about 7,300 (2.2%) were called active. For the sample, actives were picked, then their nearest neighbours and some compounds at random.
Numbers only, in %.

Recorded inhibition, per entry:
[[record]]
compound = "CCCCn1c(SCC(=O)N2CCOCC2)nc2c1c(=O)n(C)c(=O)n2C"
value_unit = "%"
reported = 0.276

[[record]]
compound = "Cc1ccc(S(=O)(=O)N(C)C)cc1NC(=O)c1ccc(-n2cncn2)c([N+](=O)[O-])c1"
value_unit = "%"
reported = -0.831

[[record]]
compound = "Cn1c(=O)n(Cc2ccco2)c(=N)c2c3c(sc21)CCCC3"
value_unit = "%"
reported = 12.5

[[record]]
compound = "CCCCN1C(=S)NC[C@@H]1C(C)CC (some centres not stated)"
value_unit = "%"
reported = 20.5

[[record]]
compound = "COc1ccc(CC(=O)N[C@@H]2c3cc(OC)c(OC)cc3C[C@H]2OCc2ccccc2)cc1"
value_unit = "%"
reported = 15.2


Please supply inhibition for each of the following items, keeping them in order.
1. Cc1nc2nc(C)c(CCC(=O)N3CCN(c4ccccc4)CC3)c(C)n2n1
2. C#CCOCCOCCOCCNc1nc(N2CCN(C(=O)[C@H](CO)n3cc([C@@H](N)C(C)C)nn3)CC2)nc(N2CCN(C(=O)[C@H](CCC(=O)O)n3cc([C@@H](N)[C@H](C)CC)nn3)CC2)n1

Reply:
[1.14, 9.15]

----------
Provide the recorded inhibition for the entries that follow.
Test: growth inhibitors of tim10-1 mutant yeast, primary screen, luminescence, uHTS (AID 463190);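 further: mutant grown at 25 °C; 0% = DMSO wells with yeast and 100% = wells holding no yeast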
Conditions: S. cerevisiae tim10-1 ts strain growth, BacTiter-Glo, 24 h; at 20 µM; active compounds read high
In all, about 330,000 compounds went through this assay and about 7,300 (2.2%) were called active. What follows is part of a selection rich in actives, with near analogues and random picks from the rest.
One number for each entry, in %.

Check out these entries, answers already filled in.
[[record]]
compound = "O=C(CCc1ccccc1F)N1CCN(c2ccccc2)CC1"
reported = 6.47

[[record]]
compound = "C#C[C@]1(O)CC[C@H]2[C@@H]3CCC4=CC(=O)CC[C@@H]4[C@H]3CC[C@@]21CC"
reported = 12.4


Below are some compounds; for each one, tell me its inhibition.
1. O=S(=O)(Nc1ccc(Oc2ncccn2)c(Cl)c1)c1ccc(F)cc1
2. CN=c1scc(-c2cc(OC)ccc2OC)n1/N=C/c1c(C)[nH]c2ccccc12
3. O=C(Cc1ccc2c(c1)CCCC2)Nc1ccccc1Cl

Reply:
15.3
46
10.5

Okay, here is my list. What is inhibition for each of these?
1. CCC1CCCCN1S(=O)(=O)Cc1ccccc1Cl (configuration not stated)
2. C[C@H](CO)N1C[C@H](C)[C@@H](CN(C)S(=O)(=O)c2ccc(F)cc2)Oc2c(NC(=O)Nc3ccccc3)cccc2C1=O
3. Cc1c(NC(=O)Nc2ccccc2Cl)sc(=S)n1C
4. CC(C)C(O)C1CCN(Cc2nc(Cc3ccccc3Cl)no2)CC1 (configuration not stated)
5. COCCNC(=S)N/N=C/c1c(C)[nH]c2ccccc12
6. O=C(Nc1ccccc1Cl)/C(Cl)=C(\Cl)S(=O)c1ccccc1 (configuration not stated)
7. CCN(CC)Cc1csc2ccc(Br)cc12

Reply:
1: 25.3; 2: -4.64; 3: 12; 4: 15.8; 5: 16.2; 6: 78.1; 7: 7.29
